Here, each record is paired with measured Relative Inhibition of IL-4 induced TARC IC50 data.
Molecular target: T1, hIL-4Rα on cells (human, UniProt P24394 26-825)
T1 sequence: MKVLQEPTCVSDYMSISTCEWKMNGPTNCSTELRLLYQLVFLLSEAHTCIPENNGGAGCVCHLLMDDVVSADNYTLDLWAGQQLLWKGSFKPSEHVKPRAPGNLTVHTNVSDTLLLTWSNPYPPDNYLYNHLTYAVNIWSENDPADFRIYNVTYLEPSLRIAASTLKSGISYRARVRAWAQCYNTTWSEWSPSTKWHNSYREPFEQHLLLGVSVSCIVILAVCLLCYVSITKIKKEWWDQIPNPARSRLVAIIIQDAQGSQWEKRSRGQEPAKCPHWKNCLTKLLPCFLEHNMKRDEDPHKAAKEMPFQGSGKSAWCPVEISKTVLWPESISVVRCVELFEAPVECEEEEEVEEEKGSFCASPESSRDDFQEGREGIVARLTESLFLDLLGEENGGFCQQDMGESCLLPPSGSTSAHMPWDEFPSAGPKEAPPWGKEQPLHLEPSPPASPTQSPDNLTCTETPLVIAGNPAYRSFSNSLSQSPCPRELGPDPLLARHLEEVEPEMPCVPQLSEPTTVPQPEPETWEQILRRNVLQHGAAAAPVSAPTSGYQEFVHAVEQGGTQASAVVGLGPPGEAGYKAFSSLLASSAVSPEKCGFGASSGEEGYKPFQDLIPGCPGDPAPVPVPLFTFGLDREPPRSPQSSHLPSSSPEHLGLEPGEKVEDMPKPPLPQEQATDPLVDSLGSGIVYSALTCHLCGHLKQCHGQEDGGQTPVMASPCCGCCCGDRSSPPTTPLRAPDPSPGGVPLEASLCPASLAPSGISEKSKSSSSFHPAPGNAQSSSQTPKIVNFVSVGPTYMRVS
Test: cell-based or functional assay

Known Relative Inhibition of IL-4 induced TARC IC50 results, listed for orientation:
Construct 3 (mAb412) (antibody, IgG4, V domains shown, VH/VL only) VH: EVQLVESGGGLEQPGGSLRLSCAGSGFTFRDFAMTWVRQAPGKGLEWVSSISGSGSSTYYADSVKGRFTISRDNSKNTLYLQMNSLRAEDTAVYYCAKDRLSITVRPRYYGLDVWGQGTTVTVSS VL: DIVMTQSPLSLPVTPGEPASISCRSSQSLLYSIGYNYVDWYLQKSGQSPQLLIYLGNKRASGVPDRFSGSGSGTDFTLKISRVEAEDVGFYYCMQALTTPYTFGQGTKLEIK :: 0.521 relative to dupilumab
Construct 45 (mAb494) (antibody, IgG4, V domains shown, VH/VL only) VH: EVQLVESGGGLEQPGGSLRLSCAGSGFTFRDFAMTWVRQAPGKGLEWVSSISGSGDGTYYADSVKGRFTISRDNSKNTLYLQMNSLRAEDTAVYYCAKDRVSITIRPRYYGLDVWGQGTTVTVSS VL: DIVMTQSPLSLPVTPGEPASISCTASQSLLYSIGYNYVDWYLQKSGQSPQLLIYLGNNRATGVPDRFSGSGSGTDFTLKISRVEAEDVGFYYCMQSLQTPYTFGQGTKLEIK :: 3.09 relative to dupilumab
Construct 36 (mAb469) (antibody, IgG4, V domains shown, VH/VL only) VH: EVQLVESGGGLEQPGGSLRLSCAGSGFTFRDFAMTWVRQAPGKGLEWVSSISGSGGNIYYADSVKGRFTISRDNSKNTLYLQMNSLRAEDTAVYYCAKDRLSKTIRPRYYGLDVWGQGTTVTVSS VL: DIVMTQSPLSLPVTPGEPASISCRSSQSLLYSIGKNYVDWYLQKSGQSPQLLIYEGNNRASGVPDRFSGSGSGTDFTLKISRVEAEDVGFYYCMQSLTSPYTFGQGTKLEIK :: 1.78 relative to dupilumab
Construct 6 (mAb415) (antibody, IgG4, V domains shown, VH/VL only) VH: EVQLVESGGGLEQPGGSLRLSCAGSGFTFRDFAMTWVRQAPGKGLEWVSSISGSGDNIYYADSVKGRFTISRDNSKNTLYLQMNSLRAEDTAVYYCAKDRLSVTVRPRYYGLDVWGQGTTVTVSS VL: DIVMTQSPLSLPVTPGEPASISCRSSQGLLYSIGYNYVDWYLQKSGQSPQLLIYLGNKRASGVPDRFSGSGSGTDFTLKISRVEAEDVGFYYCMQSLQTPYTFGQGTKLEIK :: 0.879 relative to dupilumab
Construct 9 (mAb418) (antibody, IgG4, V domains shown, VH/VL only) VH: EVQLVESGGGLEQPGGSLRLSCAGSGFTFTDFAMTWVRQAPGKGLEWVSSISGSGGNIYYADSVKGRFTISRDNSKNTLYLQMNSLRAEDTAVYYCAKDRLSVTVRPRYYGLDVWGQGTTVTVSS VL: DIVMTQSPLSLPVTPGEPASISCRSSQSLLYSIGKNYVDWYLQKSGQSPQLLIYLGNNRATGVPDRFSGSGSGTDFTLKISRVEAEDVGFYYCMQALGSPYTFGQGTKLEIK :: 0.593 relative to dupilumab
Construct 41 (mAb478) (antibody, IgG4, V domains shown, VH/VL only) VH: EVQLVESGGGLEQPGGSLRLSCAGSGFTFRDFAMTWVRQAPGKGLEWVSSISGGGGNTYYADSVKGRFTISRDNSKNTLYLQMNSLRAEDTAVYYCAKDRVSITIRPRYYGLDVWGQGTTVTVSS VL: DIVMTQSPLSLPVTPGEPASISCTASQSLLYSIGYNYVDWYLQKSGQSPQLLIYLGNKRASGVPDRFSGSGSGTDFTLKISRVEAEDVGFYYCMQAYNSPYTFGQGTKLEIK :: 1.53 relative to dupilumab
Construct 27 (mAb435) (antibody, IgG4, V domains shown, VH/VL only) VH: EVQLVESGGGLEQPGGSLRLSCAGSGFTFTDFAMTWVRQAPGKGLEWVSSISGSGGNKYYADSVKGRFTISRDNSKNTLYLQMNSLRAEDTAVYYCAKDRLSVTVRPRYYGLDVWGQGTTVTVSS VL: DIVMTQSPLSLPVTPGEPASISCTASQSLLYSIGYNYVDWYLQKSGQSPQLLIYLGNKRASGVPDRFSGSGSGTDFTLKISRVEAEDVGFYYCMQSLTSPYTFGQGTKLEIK :: 0.547 relative to dupilumab
Construct 19 (mAb427) (antibody, IgG4, V domains shown, VH/VL only) VH: EVQLVESGGGLEQPGGSLRLSCAGSGFTFRTYAMTWVRQAPGKGLEWVSSISGSGDNTYYADSVKGRFTISRDNSKNTLYLQMNSLRAEDTAVYYCAKDRVSITIRPRYYGLDVWGQGTTVTVSS VL: DIVMTQSPLSLPVTPGEPASISCTSSQSLLYSIGYNYVDWYLQKSGQSPQLLIYLGNKRASGVPDRFSGSGSGTDFTLKISRVEAEDVGFYYCMQALGSPYTFGQGTKLEIK :: 0.756 relative to dupilumab
Construct 37 (mAb470) (antibody, IgG4, V domains shown, VH/VL only) VH: EVQLVESGGGLEQPGGSLRLSCAGSGFTFRTYAMTWVRQAPGKGLEWVSSISGGGGNTYYADSVKGRFTISRDNSKNTLYLQMNSLRAEDTAVYYCAKDRLSVTVRPRYYGLDVWGQGTTVTVSS VL: DIVMTQSPLSLPVTPGEPASISCRASQSLLYSVGYNYVDWYLQKSGQSPQLLIYLGNNRASGVPDRFSGSGSGTDFTLKISRVEAEDVGFYYCMQSLTSPYTFGQGTKLEIK :: 1.16 relative to dupilumab

Now turn to the next binder.
Incoming: Fill in: Relative Inhibition of IL-4 induced TARC IC50 of Construct 38 (mAb471) (antibody, IgG4, V domains shown, VH/VL only) VH: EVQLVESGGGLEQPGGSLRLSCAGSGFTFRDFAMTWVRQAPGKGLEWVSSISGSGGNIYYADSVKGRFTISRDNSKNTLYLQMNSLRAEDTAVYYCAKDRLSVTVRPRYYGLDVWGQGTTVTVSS VL: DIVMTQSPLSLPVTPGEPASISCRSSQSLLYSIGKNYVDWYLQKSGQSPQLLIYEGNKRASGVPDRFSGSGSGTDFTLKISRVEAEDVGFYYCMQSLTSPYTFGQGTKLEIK is ___
Outgoing: 1.17 relative to dupilumab
